Data credit: patent US10913736B2

system: S. aureus (ATCC 29213)

- molecule: "Clc1cc(Cl)cc(CNCCc2nc3ccc(Cl)cc3[nH]2)c1"
  MIC: "> 10 µg/mL"
- molecule: "Fc1ccc2nc(NCCCN[C@@H]3CCNc4c(Cl)cc(Cl)cc43)[nH]c2n1"
  MIC: "0.157 µg/mL"
- molecule: "N[C@@H](CC(=O)NCc1nc2ccccc2[nH]1)Cc1ccc(Cl)cc1Cl"
  MIC: "> 10 µg/mL"
- molecule: "O=C(/C=C/Oc1ccc(Cl)cc1Cl)NCc1nc2ccc(F)nc2[nH]1"
  MIC: "> 10 µg/mL"
- molecule: "O=C(Cc1cc(Cl)cc(Cl)c1)N1CCCC(c2nc3nc(Cl)ccc3[nH]2)C1 (centres unmarked)"
  MIC: "> 10 µg/mL"
- molecule: "O=C(Cc1cc(Cl)cc(Cl)c1)N1CCC[C@H](c2nc3cc(Cl)ccc3[nH]2)C1"
  MIC: "> 10 µg/mL"
- molecule: "C[C@@H](CNCc1cc(Cl)cc(Cl)c1)CNc1nc2cccnc2[nH]1"
  MIC: "10 µg/mL"
- molecule: "Fc1ccc2nc(NCCCNCc3cc(Cl)cc(Cl)c3)[nH]c2n1"
  MIC: "1.25 µg/mL"

----------
biological target: MetRS (T. brucei) (Trypanosoma brucei brucei)
Sequence (Q38C91 entry or part of it): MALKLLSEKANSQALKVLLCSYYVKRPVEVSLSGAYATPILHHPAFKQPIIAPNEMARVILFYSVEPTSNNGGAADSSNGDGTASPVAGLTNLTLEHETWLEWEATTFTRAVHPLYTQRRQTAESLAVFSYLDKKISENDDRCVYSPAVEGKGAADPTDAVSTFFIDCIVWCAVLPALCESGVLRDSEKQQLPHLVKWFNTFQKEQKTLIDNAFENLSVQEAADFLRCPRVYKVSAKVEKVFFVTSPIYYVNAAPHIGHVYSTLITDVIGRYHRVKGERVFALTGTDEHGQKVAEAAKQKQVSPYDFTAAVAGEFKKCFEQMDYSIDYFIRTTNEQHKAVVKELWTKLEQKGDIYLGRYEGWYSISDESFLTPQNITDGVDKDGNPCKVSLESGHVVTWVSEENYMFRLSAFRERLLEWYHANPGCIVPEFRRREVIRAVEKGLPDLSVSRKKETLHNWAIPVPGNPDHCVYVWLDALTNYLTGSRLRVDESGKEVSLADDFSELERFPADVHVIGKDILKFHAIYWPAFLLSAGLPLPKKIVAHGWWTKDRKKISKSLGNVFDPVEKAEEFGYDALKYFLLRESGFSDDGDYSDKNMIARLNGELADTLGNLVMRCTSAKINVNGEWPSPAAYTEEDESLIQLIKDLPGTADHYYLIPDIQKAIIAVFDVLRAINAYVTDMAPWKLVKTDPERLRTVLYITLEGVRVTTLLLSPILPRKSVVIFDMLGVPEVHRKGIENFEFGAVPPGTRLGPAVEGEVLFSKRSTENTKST
pIC50: −log10 of the molar value.

- molecule: "O=C(Cc1ccc(Cl)cc1Cl)NCc1nc2ccc(Cl)nc2[nH]1 [Compound 1876]"
  pIC50: 6.43
- molecule: "Fc1ccc2nc(NCCCNCc3cc(Cl)cc(Cl)c3)[nH]c2n1 [Compound 1614]"
  pIC50: 7.80
- molecule: "Clc1cc(Cl)cc(CO[C@H]2CCCN(c3nc4nc(Cl)ccc4[nH]3)C2)c1 [Compound 1898]"
  pIC50: 6.71
- molecule: "Clc1cc(Cl)cc(CNC2CCCCN(c3nc4nc(Cl)ccc4[nH]3)C2)c1 (centres unmarked) [Compound 1903]"
  pIC50: 6.17
- molecule: "O=C(Cc1cc(Cl)cc(Cl)c1)N1CCCC(c2nc3cc(Cl)c(F)cc3[nH]2)C1 (centres unmarked) [Compound 1746]"
  pIC50: 6.86

----------
pIC50: −log10 of the molar value.
Recorded below: pIC50, system MetRS (T. brucei) (Trypanosoma brucei brucei).
quantity_kind: pIC50

- compound: "C=CCOc1c(Cl)cc(Cl)cc1CN[C@H]1CCCN(c2nc3nc(Cl)ccc3[nH]2)C1"
  quantity_kind: "pIC50"
  modifier_sign: "="
  assay_value: 7.68
- compound: "O=C(CCOc1ccc(Cl)cc1Cl)NCc1nc2ccccc2[nH]1"
  quantity_kind: "pIC50"
  modifier_sign: "="
  assay_value: 7.13
- compound: "Clc1ccc(CN[C@H]2CCN(c3nc4ccc(Cl)nc4[nH]3)C2)c(Cl)c1"
  quantity_kind: "pIC50"
  modifier_sign: "="
  assay_value: 5.79
- compound: "CC(=O)N(Cc1ccc(Cl)cc1Cl)C1CCCC(c2nc3nc(F)ccc3[nH]2)C1 (centres unmarked)"
  quantity_kind: "pIC50"
  modifier_sign: "="
  assay_value: 5.84
- compound: "O=C1CN(Cc2cccc(Cl)c2)CCN1Cc1nc2ccccc2[nH]1"
  quantity_kind: "pIC50"
  modifier_sign: "<"
  assay_value: 5.00
- compound: "OC1N[C@@H](Cc2ccc(Cl)cc2Cl)C(O)N1Cc1nc2ccccc2[nH]1 (some centres unmarked)"
  quantity_kind: "pIC50"
  modifier_sign: "="
  assay_value: 5.53
- compound: "Clc1ccc(Cn2cc(Cc3nc4ccccc4[nH]3)nn2)c(Cl)c1"
  quantity_kind: "pIC50"
  modifier_sign: "="
  assay_value: 5.87
- compound: "COC(=O)N(CCN(C)c1nc2nc(Cl)ccc2[nH]1)Cc1cc(Cl)cc(Cl)c1"
  quantity_kind: "pIC50"
  modifier_sign: "="
  assay_value: 7.68
